Entry source: patent US10150728B2

# testedSystem: recombinant human ACC2 (Homo sapiens (Human))
# testDescription: Measurement of inhibitory activity on human ACC2 (MALDI-TOF MS, acetyl CoA to malonyl CoA conversion)
# Format: biochemical
# measurementContext: Tables 155-159
pIC50: −log10 of the molar value.
We use 7 as the dividing line for pIC50: on or above the line is condition met, below is condition not met.

> print(dat)
                                   compound     classification
1  CC(=O)N[C@@H](C)CO[C@H]1CC[C@H](Oc2ccc3nc(OCC4(C#N)CC4)sc3c2F)CC1      condition met
2  CC(=O)N[C@@H](C)CO[C@H]1CC[C@H](Oc2ccc3nc(N4CC(C)(O)C4)sc3c2F)CC1  condition not met
3  CC(=O)N[C@@H](C)CO[C@H]1C[C@H](COc2nccc(N3CCCC3C)c2Cl)C1 (some centres unmarked)      condition met
4  CC(=O)N[C@@H](C)CO[C@H]1C[C@H](COc2ccc3nc(OCC(F)(F)F)sc3n2)C1      condition met

Lab note: next compound to report on.
Lookup: Exam item: decide whether the reported pIC50 for `CC(=O)N[C@@H](C)CO[C@H]1CC[C@H](Oc2nc3c(Cl)nc(C4CC4)c(Cl)c3n2C)CC1` is at least 7.
Found: condition not met

---

# testedSystem: recombinant human ACC2 (Homo sapiens (Human))
# testDescription: Measurement of inhibitory activity on human ACC2 (MALDI-TOF MS, acetyl CoA to malonyl CoA conversion)
# Type: biochemical
# measurementContext: Table 154
pIC50: −log10 of the molar value.
Please note: Yes applies when pIC50 is 7 or greater, and No applies otherwise.

These solved cases illustrate the format of a correct answer.
> print(dat)
                                   molecule  classification
1  CCCc1ccc(Oc2ccc(OC[C@H](C)NC(C)=O)cn2)c(Cl)c1 [Compound I-004]              No
2  CC(=O)N[C@@H](C)CO[C@H]1CC[C@H](Oc2ccc3nc(C(C)C)oc3c2F)CC1 [Compound I-062]             Yes
3  CC(=O)N[C@@H](C)CO[C@H]1CC[C@H](Oc2ccc3nc(C(C)(F)F)sc3c2Cl)CC1 [Compound I-052]              No
4  CCCc1ccc(Oc2ccc(OC[C@H](C)NC(=O)NCC)cc2)c(Cl)c1 [Compound I-007]              No
5  CC(=O)N[C@@H](C)CO[C@H]1CC[C@H](Oc2ccc3c(c2Cl)OCCN(CC(F)(F)F)C3=O)CC1 [Compound I-094]              No

Lookup: Threshold query (pIC50 >= 7) on CC(=O)N[C@@H](C)[C@H](C)Oc1ccc(Oc2ccc3nc(C(C)C)sc3c2Cl)cn1 [Compound I-014]
Found: No

Lookup: Could you tell me if the measured pIC50 of CC(=O)N[C@@H](C)COc1cnc(Oc2ccc3nc(C(C)(F)F)sc3c2Cl)cn1 [Compound I-028] reaches 7 or more?
Found: Yes

---

# testedSystem: recombinant human ACC2 (Homo sapiens (Human), UniProt O00763)
# Sequence (O00763 27-2458): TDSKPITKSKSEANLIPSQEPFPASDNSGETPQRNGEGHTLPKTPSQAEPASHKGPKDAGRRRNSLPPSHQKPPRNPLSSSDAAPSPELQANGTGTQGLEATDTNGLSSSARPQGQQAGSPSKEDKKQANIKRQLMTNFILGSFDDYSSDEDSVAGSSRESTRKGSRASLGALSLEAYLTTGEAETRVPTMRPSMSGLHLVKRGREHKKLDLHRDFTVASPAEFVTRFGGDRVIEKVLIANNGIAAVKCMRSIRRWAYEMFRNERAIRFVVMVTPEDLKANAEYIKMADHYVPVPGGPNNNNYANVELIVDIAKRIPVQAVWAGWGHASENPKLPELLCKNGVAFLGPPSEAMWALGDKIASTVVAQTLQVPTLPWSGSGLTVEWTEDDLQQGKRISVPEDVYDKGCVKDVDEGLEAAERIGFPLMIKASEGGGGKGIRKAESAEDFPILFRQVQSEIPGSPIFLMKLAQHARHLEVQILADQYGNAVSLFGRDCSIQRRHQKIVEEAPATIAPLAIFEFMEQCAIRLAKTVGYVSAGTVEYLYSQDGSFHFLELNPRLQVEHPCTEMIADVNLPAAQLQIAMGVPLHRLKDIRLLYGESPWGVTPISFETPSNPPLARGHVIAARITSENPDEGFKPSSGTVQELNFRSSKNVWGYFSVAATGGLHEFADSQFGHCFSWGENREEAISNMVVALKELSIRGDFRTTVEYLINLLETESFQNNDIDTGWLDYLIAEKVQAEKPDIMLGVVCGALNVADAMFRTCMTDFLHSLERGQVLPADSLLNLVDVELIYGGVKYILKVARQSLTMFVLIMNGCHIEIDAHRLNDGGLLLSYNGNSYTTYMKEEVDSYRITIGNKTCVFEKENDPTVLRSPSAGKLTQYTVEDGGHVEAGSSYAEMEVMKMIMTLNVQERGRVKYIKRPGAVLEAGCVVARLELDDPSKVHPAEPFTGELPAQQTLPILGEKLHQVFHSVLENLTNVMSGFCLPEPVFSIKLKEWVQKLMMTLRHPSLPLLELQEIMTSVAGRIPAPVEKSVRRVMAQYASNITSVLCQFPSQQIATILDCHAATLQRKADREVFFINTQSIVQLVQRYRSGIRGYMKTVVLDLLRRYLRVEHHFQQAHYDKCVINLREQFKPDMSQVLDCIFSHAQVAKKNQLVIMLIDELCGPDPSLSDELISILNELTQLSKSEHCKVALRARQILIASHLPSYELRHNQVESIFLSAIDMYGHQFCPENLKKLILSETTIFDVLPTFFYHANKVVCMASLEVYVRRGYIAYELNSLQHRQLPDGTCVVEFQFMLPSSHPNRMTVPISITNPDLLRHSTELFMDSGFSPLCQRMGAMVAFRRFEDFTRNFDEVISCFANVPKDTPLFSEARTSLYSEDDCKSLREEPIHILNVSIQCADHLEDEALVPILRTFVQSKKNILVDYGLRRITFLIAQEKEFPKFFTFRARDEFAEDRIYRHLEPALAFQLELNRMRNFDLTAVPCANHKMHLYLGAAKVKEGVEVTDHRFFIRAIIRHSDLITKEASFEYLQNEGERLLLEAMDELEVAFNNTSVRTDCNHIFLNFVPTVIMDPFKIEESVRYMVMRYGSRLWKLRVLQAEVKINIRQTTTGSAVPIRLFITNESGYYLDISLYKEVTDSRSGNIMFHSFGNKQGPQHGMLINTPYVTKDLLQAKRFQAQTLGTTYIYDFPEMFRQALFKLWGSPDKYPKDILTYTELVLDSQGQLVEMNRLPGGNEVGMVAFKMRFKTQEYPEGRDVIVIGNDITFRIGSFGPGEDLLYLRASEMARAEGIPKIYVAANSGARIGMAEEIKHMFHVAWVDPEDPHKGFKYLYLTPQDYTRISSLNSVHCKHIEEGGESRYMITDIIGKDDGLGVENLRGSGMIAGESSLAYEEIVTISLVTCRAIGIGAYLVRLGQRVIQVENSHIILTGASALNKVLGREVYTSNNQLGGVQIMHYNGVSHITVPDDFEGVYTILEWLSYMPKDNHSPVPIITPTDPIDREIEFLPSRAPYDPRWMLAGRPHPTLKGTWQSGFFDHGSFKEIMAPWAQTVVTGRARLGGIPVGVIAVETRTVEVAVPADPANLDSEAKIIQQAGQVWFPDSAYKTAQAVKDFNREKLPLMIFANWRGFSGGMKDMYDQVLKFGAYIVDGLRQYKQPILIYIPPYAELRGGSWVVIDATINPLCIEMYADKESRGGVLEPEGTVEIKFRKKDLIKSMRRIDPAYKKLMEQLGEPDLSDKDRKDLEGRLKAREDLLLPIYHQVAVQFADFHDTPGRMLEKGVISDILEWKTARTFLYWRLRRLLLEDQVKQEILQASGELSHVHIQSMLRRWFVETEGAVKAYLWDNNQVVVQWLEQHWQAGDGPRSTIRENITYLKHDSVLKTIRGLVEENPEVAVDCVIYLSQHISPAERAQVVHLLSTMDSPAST
# testDescription: Measurement of inhibitory activity on human ACC2 (MALDI-TOF MS, acetyl CoA to malonyl CoA conversion)
# Assay type: biochemical
# measurementContext: Tables 155-159
Rule: measured IC50 below 30 nM gets MET; anything equal to or greater than 30 nM gets NOT MET.

Here are 2 compounds together with their reported answers.
> print(dat)
                                 smilesrepr  classification
1  CC(=O)N[C@@H](C)CO[C@H]1C[C@H](c2nc3cnc(OCc4ccccc4)cc3o2)C1         NOT MET
2  CC(=O)N[C@@H](C)CC[C@@H]1CC[C@@H](Oc2nc3c(F)cc(OCC(F)F)c(Cl)c3n2C)CO1             MET

Lookup: Decide: IC50 of `CC(=O)N[C@@H](C)CO[C@H]1CC[C@H](Oc2nc3ccc(Oc4cccnc4)cc3n2C)CC1` strictly below 30 nM?
Found: NOT MET

Lookup: Determine whether this compound shows IC50 lower than 30 nM (ties excluded): `CC(=O)N[C@@H](C)CO[C@H]1CC[C@H](Oc2ccc3nc(O[C@H]4C[C@H](C#N)C4)sc3c2F)CC1`
Found: NOT MET

Lookup: is_below(IC50, 30 nM) for `CC(=O)N[C@@H](C)CO[C@H]1CC[C@H](Oc2ncc(-c3ncc(C4CC4)cn3)cc2F)CC1` ?
Found: MET

Lookup: # TODO verify IC50 < 30 nM strictly for this compound: `CC(=O)N[C@@H](C)CO[C@H]1CC[C@H](Oc2cc3sc(OCC4(F)COC4)nc3cn2)CC1`
Found: NOT MET

Lookup: Answer whether the compound `CC(=O)N[C@@H](C)CO[C@H]1C[C@H](COc2ccc3nc(OCC4(C)CC4)sc3n2)C1` has IC50 strictly less than 30 nM
Found: MET

---

# testedSystem: recombinant human ACC2 (Homo sapiens (Human), UniProt O00763)
# testDescription: Measurement of inhibitory activity on human ACC2 (MALDI-TOF MS, acetyl CoA to malonyl CoA conversion)
# Type: biochemical
# measurementContext: Table 154
Kindly supply the reported pIC50 values for the records listed here.
Numbers only, as −log10 of the molar value.

# annotated cases, reported pIC50 shown
> print(dat)
                                   compound  recordedmetric  result
1  CC(=O)N[C@@H](C)COc1cnc(Oc2ccc3c(c2Cl)OCCN(CC(F)(F)F)C3=O)cn1 [Compound I-080]           pIC50    5.89
2  CCOc1nc2ccc(OC[C@H]3C[C@H](OC[C@H](C)NC(C)=O)C3)c(C#N)c2s1 [Compound I-103]           pIC50    5.35
3  CC(=O)N[C@@H](C)COc1ccc(Oc2ccc3nc(C(C)C)sc3c2F)cn1 [Compound I-018]           pIC50    7.12
4  CC(=O)N[C@@H](C)COc1ccc(Oc2ccc3nc(C(C)C)sc3c2C#N)cn1 [Compound I-013]           pIC50    6.40
5  CC(=O)N[C@@H](C)COc1cnc(Oc2ccc(C(=O)NCC(C)C)c(F)c2F)cn1 [Compound I-095]           pIC50    5.98

Record pIC50 per entry; entries follow.
1. CC(=O)N[C@@H](C)CO[C@H]1CC[C@H](Oc2ccc3nn(C(C)C)cc3c2Cl)CC1 [Compound I-067]
2. CC(=O)N[C@@H](C)CO[C@H]1C[C@H](COc2ccc3nc(C(C)(F)F)sc3c2Cl)C1 [Compound I-098]
3. CC(=O)N[C@@H](C)COc1cnc(Oc2ccc(C(=O)Nc3ccc(F)cc3)c(F)c2F)cn1 [Compound I-090]

Found:
1. 6.03
2. 6.10
3. 7.35

Please go through the list and note pIC50 for each compound.
1. CC(=O)N[C@@H](C)COc1cnc(Oc2ccc3nc(C(C)C)sc3c2Cl)cn1 [Compound I-038]
2. CC(=O)N[C@@H](C)COc1cnc(Oc2ccc3nc(C4CC4)sc3c2F)cn1 [Compound I-034]
3. CC(=O)N[C@@H](C)CO[C@H]1CC[C@H](Oc2ccc3nc(C(C)C)oc3c2Cl)CC1 [Compound I-064]

Found:
[7.14, 7.31, 5.95]

---

# testedSystem: recombinant human ACC2 (Homo sapiens (Human))
# testDescription: Measurement of inhibitory activity on human ACC2 (MALDI-TOF MS, acetyl CoA to malonyl CoA conversion)
# Format: biochemical
# measurementContext: Tables 155-159
Could you please report measured pIC50 for the items listed next?
Answers are plain numbers, as −log10 of the molar value.

Take a look at these entries with their results.
> print(dat)
                                   compound  recordedmetric  result
1  C[C@@H](CO[C@H]1CC[C@H](Oc2nc3c(F)cc(OC4CC4)c(F)c3n2C)CC1)NS(C)(=O)=O [Compound I-671]           pIC50    7.96
2  CC(=O)N[C@@H](C)CO[C@H]1CC[C@H](Oc2ccc3nc(N4CC(C)(C)C4)sc3c2F)CC1 [Compound I-167]           pIC50    7.23

Could I get pIC50 for every one of these entries?
1. CC(=O)N[C@@H](C)CO[C@H]1C[C@@](F)(COc2ccc3nc(OCC(F)F)sc3n2)C1 [Compound I-226]
2. CC(=O)N[C@@H](C)CO[C@H]1C[C@H](COc2ncnc(OCc3cccc(C#N)c3)c2Cl)C1 [Compound I-346]

Found:
6.99
7.72

---

# testedSystem: recombinant human ACC2 (Homo sapiens (Human), UniProt O00763)
# testDescription: Measurement of inhibitory activity on human ACC2 (MALDI-TOF MS, acetyl CoA to malonyl CoA conversion)
# Format: biochemical
# measurementContext: Table 154
Would you mind telling me the reported pIC50 of each entry?
Give bare numbers, as −log10 of the molar value.

> print(dat)
                                 smilesrepr  result
1  CCCc1ccc(Oc2ccc(OC[C@H](C)NC(N)=O)cc2)c(Cl)c1    6.46

Batch: pIC50 for all items listed.
1. CC(=O)N[C@@H](C)COc1cnc(Oc2ccc3sc(C(C)C)nc3c2Cl)cn1
2. CC(=O)N[C@@H](C)COc1cnc(Oc2ccc3nc(C(C)(F)F)oc3c2F)cn1
3. CC(=O)N[C@@H](C)CO[C@H]1CC[C@H](Oc2ccc3nc(C(C)(C)O)sc3c2Cl)CC1
4. CCCc1ccc(Oc2ccc(O[C@@H](C)[C@H](C)NC(C)=O)nc2)c(Cl)c1
5. CC(=O)N[C@@H](C)COc1cnc(Oc2ccc3nc(N4CCC(F)(F)CC4)ncc3c2Cl)cn1
6. CC(=O)N[C@@H](C)CO[C@H]1CC[C@H](Oc2ncc(-c3ccccc3)cc2C#N)CC1
7. CC(C)c1nc2ccc(Oc3ccc(OC[C@H](C)NC(N)=O)nc3)c(Cl)c2s1
8. CC(=O)N[C@@H](C)COc1ccc(Oc2ccc3nc(C(C)C)sc3c2Cl)cn1

Found:
1. 6.33
2. 7.03
3. 6.47
4. 6.92
5. 6.66
6. 6.74
7. 6.88
8. 7.19

Required: pIC50, one value per compound below.
1. CCOc1nc2ccc(Oc3cnc(OC[C@H](C)NC(C)=O)cn3)c(Cl)c2s1
2. CC(=O)N[C@@H](C)COc1cnc(Oc2ccc3nc(C(C)(C)O)sc3c2Cl)cn1
3. CCC(C)(C)c1ccc(Oc2ccc(OC[C@H](C)NC(C)=O)nc2)c(Cl)c1
4. CC(=O)N[C@@H](C)COc1cnc(Oc2ccc3nc(C4(F)CC4)sc3c2F)cn1
5. CC(=O)N[C@@H](C)COc1cnc(Oc2ccc3nc(C(C)C)oc3c2Cl)cn1
6. CC(=O)N[C@@H](C)COc1cnc(Oc2ccc3nc(N4CC(F)(F)C4)ncc3c2Cl)cn1
7. CCOc1nc2ccc(Oc3cnc(O[C@@H](C)[C@H](C)NC(C)=O)cn3)c(F)c2s1

Found:
7.80
6.42
6.40
8.00
6.78
6.81
7.54
